target: human D2-long dopamine receptor (Homo sapiens (Human), UniProt P14416); test: Radioligand binding (125I-IABN competition), D2; settings: HEK cell membranes expressing human D2-long
Sequence (P14416 whole entry): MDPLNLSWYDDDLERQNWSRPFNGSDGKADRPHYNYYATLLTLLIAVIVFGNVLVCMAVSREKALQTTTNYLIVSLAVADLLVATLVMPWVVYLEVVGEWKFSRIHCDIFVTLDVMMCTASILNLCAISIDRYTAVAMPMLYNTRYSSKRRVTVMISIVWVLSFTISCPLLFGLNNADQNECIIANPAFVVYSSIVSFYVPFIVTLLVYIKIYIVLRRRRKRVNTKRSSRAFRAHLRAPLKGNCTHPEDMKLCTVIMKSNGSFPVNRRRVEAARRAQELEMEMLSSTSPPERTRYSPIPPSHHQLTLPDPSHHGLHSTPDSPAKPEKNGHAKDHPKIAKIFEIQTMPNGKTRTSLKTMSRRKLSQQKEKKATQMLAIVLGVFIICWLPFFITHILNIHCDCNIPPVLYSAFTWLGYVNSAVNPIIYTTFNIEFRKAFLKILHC
pKi: −log10 of the molar value.
Output Condition met for pKi not less than 6; output Condition not met otherwise.

Known results for molecules:
SMILES STRUCTURE | ASSIGNED CATEGORY
CC(C)(C)c1nc(N2CCN(CCCCNC(=O)N3CCC(c4ccccc4)CC3)CC2)cc(C(F)(F)F)n1 | Condition not met
O=C(NCCCCN1CCN(c2ccnc3cc(Cl)ccc23)CC1)c1cn2ccccc2n1 | Condition not met

Qu. Answer whether pKi of CC(C)(C)c1nc(N2CCN(CCCCNC(=O)N3CCN(Cc4ccccc4)CC3)CC2)cc(C(F)(F)F)n1 is greater than or equal to 6.
Ans. Condition met

Qu. Answer whether pKi of CC(C)(C)c1nc(N2CCN(CCCCNC(=O)N3CCN(c4ccc(C(F)(F)F)cc4)CC3)CC2)cc(C(F)(F)F)n1 is greater than or equal to 6.
Ans. Condition met

Qu. Answer whether pKi of CC(C)(C)c1nc(N2CCN(CCCCNC(=O)c3cn4ccncc4n3)CC2)cc(C(F)(F)F)n1 is greater than or equal to 6.
Ans. Condition met

* * *

Item-by-item account of D2/D3 (D3 selectivity ratio, D2 Ki/D3 Ki)
target: human D3 dopamine receptor (Homo sapiens (Human)); assay: Radioligand binding (125I-IABN competition), D3; conditions: calculated D2 Ki/D3 Ki
Sequence (P35462 whole entry): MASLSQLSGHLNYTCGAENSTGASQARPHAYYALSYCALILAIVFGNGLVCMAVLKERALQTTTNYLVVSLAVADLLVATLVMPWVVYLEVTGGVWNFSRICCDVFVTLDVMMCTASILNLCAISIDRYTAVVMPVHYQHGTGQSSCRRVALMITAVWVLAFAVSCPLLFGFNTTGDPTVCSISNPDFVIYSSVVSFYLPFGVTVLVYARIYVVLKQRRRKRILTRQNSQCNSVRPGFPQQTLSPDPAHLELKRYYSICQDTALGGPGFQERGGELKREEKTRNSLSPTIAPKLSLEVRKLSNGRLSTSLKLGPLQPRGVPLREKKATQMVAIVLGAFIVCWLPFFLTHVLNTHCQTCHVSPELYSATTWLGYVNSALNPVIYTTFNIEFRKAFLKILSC
Number only, no unit.

Check out these entries, answers already filled in.
COMPOUND | REPORTED RESULT
CC(C)(C)c1nc(N2CCN(CCCCNC(=O)N3CCN(c4cccc(-c5ccccc5)c4)CC3)CC2)cc(C(F)(F)F)n1 [Compound 44] | 22
CC(C)(C)c1cc(N2CCN(CCCCNC(=O)c3cn4ccccc4n3)CC2)nc(C(C)(C)C)n1 [Compound 122] | 19
CC(C)(C)c1nc(N2CCN(CCCCNC(=O)N3CCN(c4ccnc5ccccc45)CC3)CC2)cc(C(F)(F)F)n1 [Compound 34] | 41
Cc1ccc2[nH]c3c(c2c1)CN(C(=O)NCCCCN1CCN(c2cc(C(F)(F)F)nc(C(C)(C)C)n2)CC1)CC3 [Compound 90] | 10

Qu. For CC(C)(C)c1nc(N2CCN(CCCCNC(=O)N3CCc4ccccc4CC3)CC2)cc(C(F)(F)F)n1 [Compound 42] , what is its reported D2/D3 (D3 selectivity ratio, D2 Ki/D3 Ki)?
Ans. 281

* * *

molecular target: human D2-long dopamine receptor (Homo sapiens (Human)); assay: Radioligand binding (125I-IABN competition), D2; details: HEK cell membranes expressing human D2-long
Item-by-item account of Ki
Write the value in µM as a bare number.

COMPOUND | Ki, µM
Cc1cccc(N2CCN(C(=O)NCCCCN3CCN(c4cc(C(F)(F)F)nc(C(C)(C)C)n4)CC3)CC2)c1C [Compound 24] | 1.18
CC(C)(C)c1nc(N2CCN(CCCCNC(=O)C3CCN(c4ccccc4)CC3)CC2)cc(C(F)(F)F)n1 [Compound 108] | 0.809

Qu. For CC(C)(C)c1nc(N2CCN(CCCCNC(=O)N3CCC(O)(c4ccc(Cl)cc4)CC3)CC2)cc(C(F)(F)F)n1 [Compound 79] , what is its reported Ki?
Ans. 0.834
